- MEASURED TARGET: NaV1.1 (Homo sapiens (Human))
- RUN DESCRIPTION: Sodium Influx Assay (Flux), NaV1.1
- Type: cell-based
- RUN CONDITIONS: Trex HEK293 cells, ANG2 dye; arithmetic mean
Where a name gives a salt, the structure may show the parent alone.

- MOLECULE: "Cc1cc(S(=O)(=O)Nc2cscn2)c(F)cc1N(C)[C@H]1CCN(Cc2nc3ccccc3s2)C1 [Example 144]"
  UNIT SPEC: "µM"
  CENSORING QUALIFIER: "="
  IC50: 6.72
- MOLECULE: "CN(c1cc(F)c(S(=O)(=O)Nc2cscn2)cc1Cl)[C@H]1CCN(Cc2ccccc2OC(F)F)C1 [Example 210]"
  UNIT SPEC: "µM"
  CENSORING QUALIFIER: "="
  IC50: 7.13
- MOLECULE: "Cc1ccccc1CN1CCC(Oc2ccc(S(=O)(=O)Nc3nccs3)cc2Cl)CC1 [Example 91]"
  UNIT SPEC: "µM"
  CENSORING QUALIFIER: "="
  IC50: 7.2
- MOLECULE: "CN(c1cc(F)c(S(=O)(=O)Nc2cscn2)cc1Cl)[C@@H]1CN(Cc2ccccc2)CC12CC2 [Example 265, 2,2,2-trifluoroacetate]"
  UNIT SPEC: "µM"
  CENSORING QUALIFIER: "="
  IC50: 6.35
- MOLECULE: "Cc1c(F)cccc1CN1CC[C@H](N(C)c2cc(F)c(S(=O)(=O)Nc3cscn3)cc2Cl)C1 [Example 220]"
  UNIT SPEC: "µM"
  CENSORING QUALIFIER: "="
  IC50: 5.84
- MOLECULE: "C[C@H](c1ccccc1)N1CCC(Oc2ccc(S(=O)(=O)Nc3cscn3)c(F)c2Cl)CC1 [Example 227, formate]"
  UNIT SPEC: "µM"
  CENSORING QUALIFIER: ">"
  IC50: 30
- MOLECULE: "O=S(=O)(Nc1cscn1)c1cc(Cl)c(N[C@@H]2CN(Cc3ccccc3)CC23CC3)cc1F [Example 264, 2,2,2-trifluoroacetate]"
  UNIT SPEC: "µM"
  CENSORING QUALIFIER: "="
  IC50: 6.01
